FYI, the data here is from ChEMBL document CHEMBL5058577.

Test system: Fibroblast
Test: Multiplex assay against human fibroblast
Assay type: toxicity, cell-based
Conditions: 12 h, 10 µM, compound concentration 10 uM, replicate 1
readout label: Population Pyknosed Nuclei (%)
Numbers only here, please. The scale is %.

Name the recorded Population Pyknosed Nuclei (%) of the item O=C1COc2nccc(-c3ccccc3F)c2CN1Cc1cc(C(F)(F)F)cc(C(F)(F)F)c1 in your answer.
14

Name the recorded Population Pyknosed Nuclei (%) of the item O=C(O)Cc1ccccc1Nc1c(Cl)cccc1Cl [DICLOFENAC] in your answer.
17

Name the recorded Population Pyknosed Nuclei (%) of the item COc1ccc2c(c1)C(C(=O)N(Cc1ccc(N(C)C)cc1)c1ccc(C(C)C)cc1)CCC2.Cl (stereo unspecified) in your answer.
13

Name the recorded Population Pyknosed Nuclei (%) of the item COc1c(C)cc(NC(=O)c2nn(Cc3ccc(F)cc3)c3c2CN(C(=O)c2ccc[nH]2)C[C@]3(C)C(N)=O)cc1C in your answer.
29

Name the recorded Population Pyknosed Nuclei (%) of the item CCCC(CCC)C(=O)O [VALPROIC ACID] in your answer.
9

Name the recorded Population Pyknosed Nuclei (%) of the item COc1cc(C(=O)N(CCCc2ccccc2)Cc2ccc(CC(=O)O)cc2)cc(OC)c1C in your answer.
12

====

Provide the recorded Population Mitochondria Different-Phenotype (%) for the entries that follow.
Tested on: Fibroblast
Assay: Multiplex assay against human fibroblast
Type: toxicity, cell-based
Conditions: 48 h, 1 µM, compound concentration 1 uM, replicate 2
Numbers only here, please. The scale is %.

Name the recorded Population Mitochondria Different-Phenotype (%) of the item CCCC(CCC)C(=O)O in your answer.
7

Name the recorded Population Mitochondria Different-Phenotype (%) of the item N[C@@]1(C(=O)O)CO[C@H]2[C@H](C(=O)O)[C@H]21 in your answer.
7

Name the recorded Population Mitochondria Different-Phenotype (%) of the item CN(C)c1ccnc2sc3c(=O)n(N4CCCCCC4)cnc3c12 in your answer.
2

====

Provide the recorded Population Mitochondria Different-Phenotype (%) for the entries that follow.
System: U2OS
Assay: Multiplex assay against U2OS
Type: toxicity, cell-based
Conditions: human, 12 h, 1 µM, compound concentration 1 uM, replicate 2

Name the recorded Population Mitochondria Different-Phenotype (%) of the item O=C(O)Cc1ccccc1Nc1c(Cl)cccc1Cl [DICLOFENAC] in your answer.
2%

Name the recorded Population Mitochondria Different-Phenotype (%) of the item C[C@H]1[C@H]2CC[C@H]3[C@@H]4CC=C5C[C@@H](N(C)C)CC[C@]5(C)[C@H]4CC[C@]23CN1C [CONESSINE] in your answer.
2%

Name the recorded Population Mitochondria Different-Phenotype (%) of the item O=S(=O)(c1ccccc1)c1cnc2c(N3CCNCC3)cccc2c1 [INTEPIRDINE] in your answer.
6%

Name the recorded Population Mitochondria Different-Phenotype (%) of the item CSc1ccccc1N1CCN(CCCCCC(=O)NC2CCCc3ccccc32)CC1.Cl (centres undefined) in your answer.
85%

Name the recorded Population Mitochondria Different-Phenotype (%) of the item CNC[C@H](O)c1ccc(O)c(O)c1 [EPINEPHRINE] in your answer.
2%

Name the recorded Population Mitochondria Different-Phenotype (%) of the item C[C@H](NC(=O)c1c(C(F)F)nn(C)c1Oc1cccc(C(F)(F)F)c1)c1ccc(C(=O)O)cc1 [PALUPIPRANT] in your answer.
0%

Name the recorded Population Mitochondria Different-Phenotype (%) of the item Cc1ccccc1C(=O)Nc1ccc(C(=O)N2CCCC(N(C)C)c3ccccc32)cc1.Cl (centres undefined) in your answer.
5%

Name the recorded Population Mitochondria Different-Phenotype (%) of the item Cc1ccc(/C(=C\CN2CCCC2)c2ccccn2)cc1 [TRIPROLIDINE] in your answer.
1%

Name the recorded Population Mitochondria Different-Phenotype (%) of the item O=C(NCC(=O)N1CC[C@H](N[C@H]2CC[C@@](O)(c3ccc(-c4ncccn4)cn3)CC2)C1)c1cccc(C(F)(F)F)c1 [PF-4136309] in your answer.
5%

Name the recorded Population Mitochondria Different-Phenotype (%) of the item N#Cc1c(N)nc(SCc2csc(-c3ccc(Cl)cc3)n2)c(C#N)c1-c1ccc(OCCO)cc1 [CAPADENOSON] in your answer.
2%

Name the recorded Population Mitochondria Different-Phenotype (%) of the item COc1cc(NC(=O)CCN2CCC(OC(=O)Nc3ccccc3-c3ccccc3)CC2)c(Cl)cc1CNC[C@H](O)c1ccc(O)c2[nH]c(=O)ccc12 [BATEFENTEROL] in your answer.
6%

Name the recorded Population Mitochondria Different-Phenotype (%) of the item CC(=O)NCCc1c(Cc2ccccc2)[nH]c2ccccc12 [LUZINDOLE] in your answer.
2%

Name the recorded Population Mitochondria Different-Phenotype (%) of the item Cc1ccc(F)cc1C(=O)Nc1ccc(C(=O)N2Cc3cccn3Cc3ccccc32)c(Cl)c1 [LIXIVAPTAN] in your answer.
10%

Name the recorded Population Mitochondria Different-Phenotype (%) of the item Cl.Clc1ccc2nsnc2c1NC1=NCCN1 [TIZANIDINE HYDROCHLORIDE] in your answer.
2%

Name the recorded Population Mitochondria Different-Phenotype (%) of the item CN1CCN(c2nc3cc(C(F)(F)F)ccc3n3cccc23)CC1.O=C(O)/C=C\C(=O)O.O=C(O)/C=C\C(=O)O in your answer.
2%

Name the recorded Population Mitochondria Different-Phenotype (%) of the item N[C@@]1(C(=O)O)CO[C@H]2[C@H](C(=O)O)[C@H]21 [LY-379268] in your answer.
2%

Name the recorded Population Mitochondria Different-Phenotype (%) of the item CC(C)(C)c1ccc(S(=O)(=O)Nc2ccc(Cl)cc2C(=O)c2cc[n+]([O-])cc2)cc1 [VERCIRNON] in your answer.
4%

Name the recorded Population Mitochondria Different-Phenotype (%) of the item O=C(O)c1cc2ccccc2c(Cc2c(O)c(C(=O)O)cc3ccccc23)c1O [PAMOIC ACID] in your answer.
6%

Name the recorded Population Mitochondria Different-Phenotype (%) of the item CN1CCN2c3ncccc3Cc3ccccc3C2C1 (centres undefined) [MIRTAZAPINE] in your answer.
6%
